meta.source: patent US20110098177A1

- System: Florida-47 tomato
- Assay type: in vivo
- ASSAY_SETUP: in vivo
- Description: The following experiments were performed in a green house during the fall of 2007 at GCREC, Balm, University of Florida. Fifteen products, at 3 different application rates were examined. The plot size was 2-gallon pots. Crop set-up, procedures and variables were as follows. […] Medium nutrient concentration was determined 1 week before treatment. […] The foliar tissue analysis was performed at 6 WAT and the concentration of N, P, K, Mg, Ca, S, B, Zn, Mn, Fe, and Cu was determined by a commercial laboratory. […]
METRIC_NAME: Tomato toxicity
Answers are plain numbers.

Could you tell me Tomato toxicity for each of these compounds? They are listed below.
1. NCC(=O)[O-].NCC(=O)[O-].[Zn+2] [BIOX-GZ, zinc glycinate]
2. O=S(=O)([O-])[O-].[Zn+2] [BIOX-INZ, zinc sulfate]
3. O=S(=O)([O-])[O-].[Cu+2] [BIOX-INC, copper sulfate]
4. O=S(=O)([O-])[O-].[Fe+2] [BIOX-INI, ferrous sulfate]
5. NCC(=O)[O-].NCC(=O)[O-].[Cu+2] [BIOX-GC, copper glycinate]

[0, 0, 0, 7, 7]

----------
- Test system: Florida-47 tomato
- METHOD_SUMMARY: Marketable yield per plant, greenhouse Fall 2007, tomato
- Type: in vivo
- ASSAY_SETUP: foliar application at 3 and 7 WAT; rates not separated
Marks after values point to notes of the source that are not given here.
METRIC_NAME: Marketable yield per plant, Tomato

These solved cases illustrate the format of a correct answer.
COMPOUND: CSCCC(O)C(=O)[O-].CSCCC(O)C(=O)[O-].[Cu+2] (stereo not shown)
MEASUREMENT_TARGET: Florida-47 tomato
METRIC_NAME: Marketable yield per plant, Tomato
RESULT: 5.5* lb/plant
//
COMPOUND: CSCCC(O)C(=O)[O-].CSCCC(O)C(=O)[O-].[Mn+2] (stereo not shown)
MEASUREMENT_TARGET: Florida-47 tomato
METRIC_NAME: Marketable yield per plant, Tomato
RESULT: 5.8* lb/plant
//
COMPOUND: CSCCC(O)C(=O)[O-].CSCCC(O)C(=O)[O-].[Ca+2] (stereo not shown)
MEASUREMENT_TARGET: Florida-47 tomato
METRIC_NAME: Marketable yield per plant, Tomato
RESULT: 3.0* lb/plant

Would you kindly look at the next entry?
Briefly, Marketable yield per plant, Tomato measured for CSCCC(O)C(=O)[O-].CSCCC(O)C(=O)[O-].[Zn+2] (stereo not shown) : 2.9* lb/plant

----------
For each entry below, report its Pepper toxicity value.
- Test system: Aristotle bell pepper
- Assay type: in vivo
- ASSAY_SETUP: in vivo
- Experimental: The following experiments were performed in a green house during the fall of 2007 at GCREC, Balm, University of Florida. Fifteen products, at 3 different application rates were examined. The plot size was 2-gallon pots. Crop set-up, procedures and variables were as follows. […] Medium nutrient concentration was determined 1 week before treatment. […] The foliar tissue analysis was performed at 6 WAT and the concentration of N, P, K, Mg, Ca, S, B, Zn, Mn, Fe, and Cu was determined by a commercial laboratory. […]
Answers are plain numbers.

MOLECULE: O=S(=O)([O-])[O-].[Zn+2] [BIOX-INZ, zinc sulfate]
Pepper toxicity: 0

Could you tell me Pepper toxicity for each of these molecules? They are listed below.
1. NCC(=O)[O-].NCC(=O)[O-].[Zn+2] [BIOX-GZ, zinc glycinate]
2. NCC(=O)[O-].NCC(=O)[O-].[Cu+2] [BIOX-GC, copper glycinate]
3. O=S(=O)([O-])[O-].[Cu+2] [BIOX-INC, copper sulfate]
4. O=S(=O)([O-])[O-].[Fe+2] [BIOX-INI, ferrous sulfate]

0
7
0
7
